- Study Target: UniProt:P00533
- Sequence (P00533 25-1210): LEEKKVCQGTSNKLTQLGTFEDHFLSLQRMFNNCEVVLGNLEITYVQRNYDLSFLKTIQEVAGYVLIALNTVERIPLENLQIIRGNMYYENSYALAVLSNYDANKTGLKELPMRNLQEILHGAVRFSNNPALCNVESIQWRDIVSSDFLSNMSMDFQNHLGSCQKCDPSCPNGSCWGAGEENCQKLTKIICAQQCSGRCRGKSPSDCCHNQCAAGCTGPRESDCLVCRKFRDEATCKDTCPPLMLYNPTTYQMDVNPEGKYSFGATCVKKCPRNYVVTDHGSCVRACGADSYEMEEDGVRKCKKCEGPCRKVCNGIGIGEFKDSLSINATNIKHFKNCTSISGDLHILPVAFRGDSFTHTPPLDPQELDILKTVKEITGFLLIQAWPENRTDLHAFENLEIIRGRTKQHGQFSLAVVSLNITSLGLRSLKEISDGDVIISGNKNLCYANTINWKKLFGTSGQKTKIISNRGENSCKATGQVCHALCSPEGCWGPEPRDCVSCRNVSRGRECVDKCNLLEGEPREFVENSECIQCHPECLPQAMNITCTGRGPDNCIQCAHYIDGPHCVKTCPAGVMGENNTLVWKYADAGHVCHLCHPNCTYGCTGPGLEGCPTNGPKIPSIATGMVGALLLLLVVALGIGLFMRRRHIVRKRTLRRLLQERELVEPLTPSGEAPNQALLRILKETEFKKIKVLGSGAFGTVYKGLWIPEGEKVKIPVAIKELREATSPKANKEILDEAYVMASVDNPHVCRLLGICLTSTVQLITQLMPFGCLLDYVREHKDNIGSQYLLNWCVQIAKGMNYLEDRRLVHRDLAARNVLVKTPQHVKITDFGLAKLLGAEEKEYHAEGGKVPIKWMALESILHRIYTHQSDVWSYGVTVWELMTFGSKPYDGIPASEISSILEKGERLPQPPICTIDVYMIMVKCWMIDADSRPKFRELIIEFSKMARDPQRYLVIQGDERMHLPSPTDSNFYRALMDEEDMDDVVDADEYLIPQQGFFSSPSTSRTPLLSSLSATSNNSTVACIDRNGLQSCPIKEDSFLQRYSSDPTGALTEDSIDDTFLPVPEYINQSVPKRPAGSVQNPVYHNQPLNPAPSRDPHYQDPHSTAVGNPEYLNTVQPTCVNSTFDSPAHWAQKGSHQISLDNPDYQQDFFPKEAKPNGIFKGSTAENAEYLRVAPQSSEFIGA
- Procedure Text: Kinase inhibition, Mobility Shift Assay (EGFR)
- Type: biochemical
Answer each item with its documented IC50.

Could you share which IC50 value was measured for O=C(NC1CC1)c1cc(F)ccc1Sc1ccc2c(/C=C/c3cc(CCN4CCCC4)ccn3)n[nH]c2c1 [Compound I-135] ?
> 60000 nM

Could you share which IC50 value was measured for CNC(=O)c1ccccc1Sc1ccc2c(/C=C/c3ccn(CCN4CCCC4)n3)n[nH]c2c1 [Compound I-13] ?
6000 to 60000 nM

Could you share which IC50 value was measured for O=C(NC1CC1)c1ccccc1Sc1ccc2c(/C=C/c3ccc(CN4CCCC4)cn3)n[nH]c2c1 [Compound I-41] ?
6000 to 60000 nM

Could you share which IC50 value was measured for CNC(=O)c1c(F)cccc1Sc1ccc2c(/C=C/c3ccc(OCCN4CCCC4)cn3)n[nH]c2c1 [Compound I-36] ?
6000 to 60000 nM

Could you share which IC50 value was measured for CN1CCN(c2ccc(/C=C/c3n[nH]c4cc(Sc5ccccc5C(=O)NC5CC5)ccc34)nc2)CC1 [Compound I-38] ?
600 to 6000 nM

Could you share which IC50 value was measured for CNC(=O)c1ccccc1Sc1ccc2c(/C=C/c3cnn(CCCN4CCCC4)c3)n[nH]c2c1 [Compound I-32] ?
6000 to 60000 nM

Could you share which IC50 value was measured for CCN(CC)Cc1ccc(/C=C/c2n[nH]c3cc(Sc4ccccc4C(=O)NC4CC4)ccc23)nc1 [Compound I-78] ?
6000 to 60000 nM

Could you share which IC50 value was measured for CNC(=O)c1ccccc1Sc1ccc2c(/C=C/c3ccc(OC[C@@H]4CCN(C)C4)cn3)n[nH]c2c1 [Compound I-39] ?
6000 to 60000 nM

Could you share which IC50 value was measured for CNC(=O)c1ccccc1Sc1ccc2c(/C=C/c3ccnn3CCN3CCCC3)n[nH]c2c1 [Compound I-25] ?
6000 to 60000 nM

Could you share which IC50 value was measured for O=C(NC1CC1)c1ccc(F)cc1Sc1ccc2c(/C=C/c3ccc(CN4CCCC4)cn3)n[nH]c2c1 [Compound I-79] ?
6000 to 60000 nM

Could you share which IC50 value was measured for O=C(NC1CC1)c1ccccc1Sc1ccc2c(/C=C/c3cc(CCCN4CCCC4)ccn3)n[nH]c2c1 [Compound I-120] ?
> 60000 nM

Could you share which IC50 value was measured for CCN(CC)Cc1ccc(/C=C/c2n[nH]c3cc(Sc4ccc(F)cc4C(=O)NC4CC4)ccc23)nc1 [Compound I-84] ?
6000 to 60000 nM

Could you share which IC50 value was measured for O=C(NC1CC1)c1ccccc1Sc1ccc2c(/C=C/c3ccc(OCCN4CCCC4)cn3)n[nH]c2c1 [Compound I-8] ?
6000 to 60000 nM

Could you share which IC50 value was measured for CNC(=O)c1ccccc1Sc1ccc2c(C#Cc3cc(OCCN4CCCC4)ccn3)n[nH]c2c1 [Compound I-23] ?
6000 to 60000 nM

* * *

- Test system: melanin
- Procedure Text: Binding capacity of compounds to melanin
- Format: in vitro ADME
- Measurement Parameters: Sepia officinalis (cuttlefish), melanin suspension (1 mg/mL); 1 mg/mL melanin suspension in PBS pH 7.4, 2 μM compound, 2 h at 37° C.; read-out: Fu % (percentage of free drug, not bound to melanin)
Recorded Metric: fraction unbound at 2 h, 2 μM

Could you share which fraction unbound at 2 h, 2 μM value was measured for CNC(=O)c1ccc(F)cc1Sc1ccc2c(/C=C/c3ccc(OCCN4CCCC4)cn3)n[nH]c2c1 ?
0.01 to 0.05

Could you share which fraction unbound at 2 h, 2 μM value was measured for CCN(C)CCOc1ccc(/C=C/c2n[nH]c3cc(Sc4ccccc4C(=O)NC4CC4)ccc23)nc1 ?
> 0.05

Could you share which fraction unbound at 2 h, 2 μM value was measured for CNC(=O)c1ccccc1Sc1ccc2c(/C=C/c3ccc(OC[C@@H]4CCN(C)C4)cn3)n[nH]c2c1 ?
0.01 to 0.05
